Protocol Description: Cmax associated with acute adverse effect in mouse at 100 mg/kg, ip
Assay type: ADME, organism-based
Parameters: dose 100 mg/kg, route intraperitoneal
Run Parameters: in vivo
Value Kind: Cmax (µM)
# value in µM; strip the unit string

Quick check: Cmax of CCc1cccn(-c2ccc(-c3cc4cnc(NC)nc4n(C[C@H]4CNCCO4)c3=O)c(Cl)c2)c1=O ?
28

====

Protocol Description: Cmax associated with acute adverse effect in mouse at 150 to 300 mg/kg, ip
Type: ADME, organism-based
Run Parameters: in vivo
Value Kind: Cmax (µM)
# value in µM; strip the unit string

Quick check: Cmax of CNc1ncc2cc(-c3ccc(-n4cccc(C)c4=O)cc3C3CC3)c(=O)n(C[C@@H]3CNCCO3)c2n1 ?
63

Where do the numbers come from? From ChEMBL document CHEMBL3817726.
